Each entry below carries its recorded inhibition.
Biological target: Serine/threonine-protein kinase MRCK alpha (Homo sapiens) (UniProt Q5VT25);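 note: each value is an averaged percent inhibition of MRCK alpha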
Sequence (Q5VT25 whole entry): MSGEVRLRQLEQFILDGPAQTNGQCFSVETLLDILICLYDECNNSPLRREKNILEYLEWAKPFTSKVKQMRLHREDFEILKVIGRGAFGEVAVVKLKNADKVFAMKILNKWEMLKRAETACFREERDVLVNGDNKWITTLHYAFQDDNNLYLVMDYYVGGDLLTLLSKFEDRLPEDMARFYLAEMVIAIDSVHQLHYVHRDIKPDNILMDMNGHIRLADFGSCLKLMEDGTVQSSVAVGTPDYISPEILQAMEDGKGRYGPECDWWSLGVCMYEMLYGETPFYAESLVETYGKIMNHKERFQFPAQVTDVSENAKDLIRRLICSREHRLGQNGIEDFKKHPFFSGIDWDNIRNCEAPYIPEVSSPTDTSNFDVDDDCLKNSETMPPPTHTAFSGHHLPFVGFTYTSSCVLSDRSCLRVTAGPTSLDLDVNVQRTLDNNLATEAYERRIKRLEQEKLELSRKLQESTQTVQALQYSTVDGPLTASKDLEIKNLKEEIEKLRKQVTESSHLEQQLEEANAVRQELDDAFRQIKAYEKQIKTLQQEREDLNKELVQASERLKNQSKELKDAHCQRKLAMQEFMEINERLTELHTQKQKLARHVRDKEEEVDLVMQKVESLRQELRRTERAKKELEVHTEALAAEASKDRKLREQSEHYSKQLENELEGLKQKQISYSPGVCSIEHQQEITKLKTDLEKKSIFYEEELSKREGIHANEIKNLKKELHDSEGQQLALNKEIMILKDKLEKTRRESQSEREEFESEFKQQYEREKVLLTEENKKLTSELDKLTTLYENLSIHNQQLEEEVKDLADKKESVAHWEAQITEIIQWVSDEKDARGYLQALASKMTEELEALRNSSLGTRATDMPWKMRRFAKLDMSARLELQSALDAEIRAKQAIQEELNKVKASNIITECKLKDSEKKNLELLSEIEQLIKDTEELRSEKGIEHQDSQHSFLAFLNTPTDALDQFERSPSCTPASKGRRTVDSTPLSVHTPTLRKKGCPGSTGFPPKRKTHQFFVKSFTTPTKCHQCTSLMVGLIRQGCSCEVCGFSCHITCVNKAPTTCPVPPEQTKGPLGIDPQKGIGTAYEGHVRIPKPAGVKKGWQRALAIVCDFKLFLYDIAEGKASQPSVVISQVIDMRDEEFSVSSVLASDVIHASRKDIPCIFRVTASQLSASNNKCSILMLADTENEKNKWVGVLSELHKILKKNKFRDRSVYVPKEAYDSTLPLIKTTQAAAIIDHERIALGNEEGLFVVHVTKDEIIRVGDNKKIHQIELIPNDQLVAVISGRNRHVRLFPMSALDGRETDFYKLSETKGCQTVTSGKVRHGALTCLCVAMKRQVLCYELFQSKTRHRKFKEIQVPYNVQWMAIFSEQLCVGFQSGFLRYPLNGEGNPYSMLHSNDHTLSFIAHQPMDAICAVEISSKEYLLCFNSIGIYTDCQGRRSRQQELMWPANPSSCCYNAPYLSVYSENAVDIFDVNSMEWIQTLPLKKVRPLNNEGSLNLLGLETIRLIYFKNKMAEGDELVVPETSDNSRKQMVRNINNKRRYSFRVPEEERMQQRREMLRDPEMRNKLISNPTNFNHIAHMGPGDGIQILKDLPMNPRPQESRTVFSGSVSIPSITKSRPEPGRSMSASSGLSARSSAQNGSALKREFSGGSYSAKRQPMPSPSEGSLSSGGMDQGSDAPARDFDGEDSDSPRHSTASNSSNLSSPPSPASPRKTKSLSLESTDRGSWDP
Details: at 1 µM

[
  {
    "Molecule": "CCCN1CCCC(c2ccc(Nc3nc(Nc4cc(F)ccc4C(N)=O)c4cc[nH]c4n3)c(OC)c2)C1 (stereo not given)",
    "Measure Unit": "%",
    "inhibition": 17.9
  },
  {
    "Molecule": "COc1cccc(-n2nc(C)c3c(N/N=C(\\C)c4ccncc4)ncnc32)c1",
    "Measure Unit": "%",
    "inhibition": -2.42
  },
  {
    "Molecule": "COc1cc(Nc2nccc(-c3cnn4ncccc34)n2)cc(OC)c1",
    "Measure Unit": "%",
    "inhibition": 3.14
  },
  {
    "Molecule": "CC(C)c1ccc2c(c1)NC(=O)/C2=N/Nc1ccc(S(N)(=O)=O)cc1",
    "Measure Unit": "%",
    "inhibition": -2.97
  },
  {
    "Molecule": "Nc1ccc(C#Cc2cncnc2Nc2ccc(OCc3cccc(F)c3)c(Cl)c2)cc1",
    "Measure Unit": "%",
    "inhibition": 0.19
  },
  {
    "Molecule": "COC(=O)Nc1nc2cc(Oc3ccc(NC(=O)Nc4cccc(Br)c4)cc3)ccc2[nH]1",
    "Measure Unit": "%",
    "inhibition": 0.85
  },
  {
    "Molecule": "COc1cc2ncnc(Nc3ccc4c(cnn4Cc4ccccc4)c3)c2cc1OC",
    "Measure Unit": "%",
    "inhibition": 0.94
  },
  {
    "Molecule": "COC(=O)c1ccc2c(c1)C(=Cc1cc(Br)c(O)c(Br)c1)C(=O)N2",
    "Measure Unit": "%",
    "inhibition": 5.34
  },
  {
    "Molecule": "[O-][S+]1CCN(Cc2ccc(-c3ccc4ncnc(Nc5ccc(OCc6ccccc6)c(Cl)c5)c4c3)o2)CC1",
    "Measure Unit": "%",
    "inhibition": -0.57
  },
  {
    "Molecule": "NS(=O)(=O)c1cccc(Nc2cc(-c3ccc(F)cc3)n[nH]2)c1",
    "Measure Unit": "%",
    "inhibition": 4.84
  }
]

----------
Target: Maternal embryonic leucine zipper kinase (Homo sapiens);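 note: reported figure is the mean percent inhibition of MELK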
Settings: at 0.1 µM
Each entry below carries its recorded inhibition.

[
  {
    "Mol Smiles": "OCc1ccc(-c2nc(-c3ccccn3)c(-c3ccc4c(c3)OCO4)[nH]2)cc1",
    "inhibition, %": 6.02
  },
  {
    "Mol Smiles": "COC(=O)c1cncc(/C=C/c2c(C)cc(O)cc2C)c1",
    "inhibition, %": 2.47
  },
  {
    "Mol Smiles": "COc1ccc(-c2nn3ncccc3c2-c2ccnc(Nc3cccc(C(F)(F)F)c3)n2)cc1",
    "inhibition, %": 2.53
  },
  {
    "Mol Smiles": "CCOc1nccc2c1nc(-c1nonc1N)n2CC",
    "inhibition, %": 3.16
  },
  {
    "Mol Smiles": "COc1cc2ncn(-c3cc(OCc4ccccc4S(C)(=O)=O)c(C#N)s3)c2cc1OC",
    "inhibition, %": 1.64
  },
  {
    "Mol Smiles": "Cc1ccc2c(-c3ccnc(Nc4ccc5c(c4)OCCO5)n3)c(-c3ccc(C(F)(F)F)cc3)nn2n1",
    "inhibition, %": -1.46
  },
  {
    "Mol Smiles": "COc1cccc(-n2nc(C)c3c(N/N=C(\\C)c4ccncc4)ncnc32)c1",
    "inhibition, %": -0.32
  },
  {
    "Mol Smiles": "COc1cc(Nc2nccc(-c3cnn4ncccc34)n2)cc(OC)c1",
    "inhibition, %": 7.1
  },
  {
    "Mol Smiles": "N#Cc1c(NC(=O)c2ccccc2F)sc2c1CCCC2",
    "inhibition, %": -3.26
  },
  {
    "Mol Smiles": "NS(=O)(=O)c1ccc(N/N=C2\\C(=O)Nc3ccc(Cl)cc32)cc1",
    "inhibition, %": 3.75
  }
]
